Test system: SK-N-MM (SKNMM-MYCN, doxycycline-inducible MYCN)
Experiment: area under dose-response curve (CellTiter-Glo viability normalised to plate controls) (AUC (arbitrary units)); higher = more loss of viability; extreme values may be limits of the assay
Details: MYCN induction (doxycycline): no doxycycline (MYCN not induced); time after drugging: 8 days
Classes by area under dose-response curve: zone 1 = under 60, zone 2 = from 60 up to 100, zone 3 = 100 and over

Before answering, review these 5 worked examples.
{"compound": "CCN(CC)Cc1ccc2cc(COC(=O)Nc3ccc(C(=O)NO)cc3)ccc2c1", "label class": "zone 3"}
{"compound": "COC(=O)N[C@@H](C)CNc1nccc(-c2cn(C(C)C)nc2-c2cc(Cl)cc(NS(C)(=O)=O)c2F)n1", "label class": "zone 2"}
{"compound": "CC1CS(=O)(=O)CCN1/N=C/c1ccc([N+](=O)[O-])o1 (stereo not given)", "label class": "zone 1"}
{"compound": "CC(=O)O[C@H]1CC[C@@]2(C)C(=CC[C@@H]3[C@@H]2CC[C@]2(C)C(c4cccnc4)=CC[C@@H]32)C1 [ABIRATERONE ACETATE]", "label class": "zone 1"}
{"compound": "Cc1ccc(NC(=O)c2ccc(CN3CCN(C)CC3)cc2)cc1Nc1nc(-c2cccnc2)cs1", "label class": "zone 1"}

Would you mind sorting Cn1cc(-c2cnn3c(N)c(Br)c([C@@H]4CCCNC4)nc23)cn1 into the appropriate category?
zone 2

Hi there! Could you help me figure out the category for COc1ncc(-c2ccc3nccc(-c4ccnnc4)c3c2)cc1NS(=O)(=O)c1ccc(F)cc1F please?
zone 3

Category of COc1cc(Nc2ncc3c(n2)-c2ccc(Cl)cc2C(c2c(F)cccc2OC)=NC3)ccc1C(=O)O :
zone 2

Class (by measured area under dose-response curve) for CCc1c2c(nc3ccc(O)cc13)-c1cc3c(c(=O)n1C2)COC(=O)[C@]3(O)CC
zone 3

----------
Measured area under dose-response curve by item
Test system: SK-N-MM (SKNMM-MYCN, doxycycline-inducible MYCN)
Test: area under dose-response curve (CellTiter-Glo viability normalised to plate controls) (AUC (arbitrary units)); higher = more loss of viability; extreme values may be limits of the assay
Settings: MYCN induction (doxycycline): +doxycycline (MYCN induced); time after drugging: 3 days
Just the number.

Previously resolved entries follow.
{"compound": "COc1cc2nccc(Oc3ccc(NC(=O)Nc4cc(C)on4)c(Cl)c3)c2cc1OC [TIVOZANIB]", "assayed target": "SK-N-MM (SKNMM-MYCN, doxycycline-inducible MYCN)", "reported result": 0}
{"compound": "CN1CCCN(C(=O)c2cccc(-c3ccc(/C=C4/C(=O)Nc5ccc(Cl)cc54)o3)c2)CC1 [CX-6258]", "assayed target": "SK-N-MM (SKNMM-MYCN, doxycycline-inducible MYCN)", "reported result": 165}
{"compound": "COC1=CC(c2cc3ccccc3[nH]2)=N/C1=C\\c1[nH]c(C)cc1C [OBATOCLAX]", "assayed target": "SK-N-MM (SKNMM-MYCN, doxycycline-inducible MYCN)", "reported result": 195}
{"compound": "CNC(=O)c1ccc(N2C(=S)N(c3ccc(C#N)c(C(F)(F)F)c3)C(=O)C2(C)C)cc1F [ENZALUTAMIDE]", "assayed target": "SK-N-MM (SKNMM-MYCN, doxycycline-inducible MYCN)", "reported result": 0}
{"compound": "Nc1ncn([C@H]2C[C@H](O)[C@@H](CO)O2)c(=O)n1 [DECITABINE]", "assayed target": "SK-N-MM (SKNMM-MYCN, doxycycline-inducible MYCN)", "reported result": 4.2}

GET /value?item= O=C(c1cc(Cc2n[nH]c(=O)c3ccccc23)ccc1F)N1CCN(C(=O)C2CC2)CC1 [OLAPARIB] &field=area under dose-response curve returns 9.23

Noted for O=C(NC[C@H](O)CO)c1ccncc1Nc1ccc(I)cc1F [PIMASERTIB] : its area under dose-response curve reads 42.1

In plain terms, Cc1cnc(Nc2ccc(OCCN3CCCC3)cc2)nc1Nc1cccc(S(=O)(=O)NC(C)(C)C)c1 [FEDRATINIB] has a documented area under dose-response curve of 109

Recorded area under dose-response curve (compound CC[C@H](Nc1nc(NCc2cnc(C)cc2C)c2ncn(C(C)C)c2n1)[C@@H](C)O [CYC-065] ): 66.2

The measured values listed here are drawn from the supplement of paper PMC7021759.
